The reported numbers originate from the Immune Epitope Database (IEDB).

target: HLA-B*83:01; assay: IEDB peptide-MHC binding, purified MHC/competitive/fluorescence; filed as Kd, often an IC50 or EC50 that approximates it; bounds were set here for any values at or beyond the usual limits of such assays; conditions: source organism: Yellow fever virus 1899/81
test.readout: Kd

Query: Quickly give me recorded Kd for HEVNGTWMI
Reply: ≥ 5 µM

====

biological target: HLA-A*68:02; assay: IEDB peptide-MHC binding, purified MHC/competitive/fluorescence; filed as Kd, often an IC50 or EC50 that approximates it; bounds were set here for any values at or beyond the usual limits of such assays; conditions: source organism: Orthomarburgvirus marburgense
test.readout: Kd (µM)
Give bare numbers, in µM.

Query: Quickly give me recorded Kd for YLAPSYRNF
Reply: 3.22

====

target: HLA-B*08:01; test: IEDB peptide-MHC binding, purified MHC/direct/fluorescence; filed as Kd, often an IC50 or EC50 that approximates it; bounds were set here for any values at or beyond the usual limits of such assays; details: source organism: Enterobacteria phage f1
test.readout: Kd

Query: Quickly give me recorded Kd for TFMYVFSTF
Reply: ≥ 20 µM

====

Task for the reader: assign each of the following sequences its reported pKd.
molecular target: HLA-B*58:01; test: IEDB peptide-MHC binding, purified MHC/competitive/fluorescence; filed as Kd, often an IC50 or EC50 that approximates it; bounds were set here for any values at or beyond the usual limits of such assays; settings: source organism: Zaire ebolavirus
One number for each entry, as −log10 of the molar value.

IMYDHLPGF 7.14

Query: Jot down pKd (HLA-B*58:01) of ISSGETRSF .
Reply: 6.45

====

target: HLA-A*01:01; assay: IEDB peptide-MHC binding, purified MHC/direct/fluorescence; filed as Kd, often an IC50 or EC50 that approximates it; bounds were set here for any values at or beyond the usual limits of such assays; settings: source organism: Influenza A virus (A/chicken/Nanchang/7-010/2000(H3N6))
test.readout: Kd

Query: Jot down Kd (HLA-A*01:01) of SSEDLNGMI .
Reply: ≥ 20 µM

====

target: HLA-A*11:01; assay: IEDB peptide-MHC binding, purified MHC/competitive/fluorescence; bounds were set here for any values at or beyond the usual limits of such assays; conditions: source organism: Vaccinia virus
test.readout: IC50

Query: Quickly give me recorded IC50 for AADEPPLVR
Reply: ≥ 142 µM

====

molecular target: HLA-B*51:01; test: IEDB peptide-MHC binding, purified MHC/competitive/radioactivity; filed as Kd, often an IC50 or EC50 that approximates it; bounds were set here for any values at or beyond the usual limits of such assays; details: source organism: Vaccinia virus WR
Task for the reader: assign each of the following sequences its reported Kd.
Numbers only, in µM.

Some entries whose results are on file:
IPFDDIVRTM 8.69
NPDNTIAVI 1.73
LPESDLDKV 6.57

Give Kd for each listed item.
1. IPVDLVKSSF
2. YPFYVSPTEM
3. RPRFDDAYNI
4. VPEFAKQYVL
5. NTYLFNILY

Reply:
1. 5.38
2. 1.55
3. 3.41
4. 1.55
5. 17.7

====

target: HLA-A*01:01; assay: IEDB peptide-MHC binding, purified MHC/competitive/fluorescence; bounds were set here for any values at or beyond the usual limits of such assays; settings: source organism: Zaire ebolavirus
test.readout: IC50 (µM)
Numbers only, in µM.

Query: Quickly give me recorded IC50 for LFEVDNLTY
Reply: 69.1
